- Experiment Summary: Intranasal bioavailability of hydrocodone conjugates in rats, LC/MS/MS
- Condition Summary: intranasal, 1 mg/kg dose, 5 Minutes
Where a SMILES comes first, the peptide text is derived from it. The star is where a group is joined. X1 = COc1ccc2c3c1O[C@H]1C(O*)=CC[C@H]4[C@@H](C2)N(C)CC[C@]314
# Lookup of reported hydrocodone plus hydromorphone concentration keyed by entry
Reported Property: hydrocodone plus hydromorphone concentration (ng/mL)

Compound: CC[C@H](C)[C@H](NC(=O)[C@H](CC(=O)O)NC(=O)[C@@H](N)CC(=O)O)C(=O)OC1=CC[C@H]2[C@H]3Cc4ccc(OC)c5c4[C@@]2(CCN3C)[C@H]1O5 [DDI-HC, Asp-Asp-Ile-Hydrocodone]
Recorded Result: 281
--
Compound: COc1ccc2c3c1O[C@H]1C(OC(=O)[C@H](Cc4ccccc4)NC(=O)[C@H](Cc4ccccc4)NC(=O)[C@H](Cc4ccccc4)NC(=O)[C@H](CCC(=O)O)NC(=O)[C@@H](N)CCC(=O)O)=CC[C@H]4[C@@H](C2)N(C)CC[C@]314 [EEFFF[SEQ ID NO: 3]-HC] (H-EEFFF-X1)
Recorded Result: 34
--
Compound: CC[C@H](C)[C@H](NC(=O)[C@H](Cc1ccccc1)NC(=O)[C@H](Cc1ccccc1)NC(=O)[C@H](Cc1ccc(O)cc1)NC(=O)[C@@H](N)Cc1ccc(O)cc1)C(=O)OC1=CC[C@H]2[C@H]3Cc4ccc(OC)c5c4[C@@]2(CCN3C)[C@H]1O5 [YYFFI[SEQ ID NO: 3]-HC] (H-YYFFI-X1)
Recorded Result: 28
--
Compound: CC[C@H](C)[C@H](NC(=O)[C@H](Cc1ccc(O)cc1)NC(=O)[C@@H](N)Cc1ccc(O)cc1)C(=O)OC1=CC[C@H]2[C@H]3Cc4ccc(OC)c5c4[C@@]2(CCN3C)[C@H]1O5 [YYI-HC, Tyr-Tyr-Ile-Hydrocodone]
Recorded Result: 31

---

# Lookup of reported Percent HC (Cmax) keyed by entry
- Experiment Summary: Intranasal bioavailability of hydrocodone conjugates in rats, LC/MS/MS
- Condition Summary: intranasal, 1 mg/kg dose, relative to hydrocodone bitartrate
Where a SMILES comes first, the peptide text is derived from it. The star is where a group is joined. X1 = COc1ccc2c3c1O[C@H]1C(O*)=CC[C@H]4[C@@H](C2)N(C)CC[C@]314
Reported Property: Percent HC (Cmax) (%)

Compound: CC[C@H](C)[C@H](NC(=O)[C@H](Cc1ccccc1)NC(=O)[C@H](Cc1ccccc1)NC(=O)[C@H](Cc1ccc(O)cc1)NC(=O)[C@@H](N)Cc1ccc(O)cc1)C(=O)OC1=CC[C@H]2[C@H]3Cc4ccc(OC)c5c4[C@@]2(CCN3C)[C@H]1O5 [YYFFI[SEQ ID NO: 3]-HC] (H-YYFFI-X1)
Recorded Result: 5
--
Compound: CC[C@H](C)[C@H](NC(=O)[C@H](CC(=O)O)NC(=O)[C@@H](N)CC(=O)O)C(=O)OC1=CC[C@H]2[C@H]3Cc4ccc(OC)c5c4[C@@]2(CCN3C)[C@H]1O5 [DDI-HC, Asp-Asp-Ile-Hydrocodone]
Recorded Result: 51
--
Compound: CC[C@H](C)[C@H](NC(=O)[C@H](Cc1ccc(O)cc1)NC(=O)[C@@H](N)Cc1ccc(O)cc1)C(=O)OC1=CC[C@H]2[C@H]3Cc4ccc(OC)c5c4[C@@]2(CCN3C)[C@H]1O5 [YYI-HC, Tyr-Tyr-Ile-Hydrocodone]
Recorded Result: 6
--
Compound: COc1ccc2c3c1O[C@H]1C(OC(=O)[C@H](Cc4ccccc4)NC(=O)[C@H](Cc4ccccc4)NC(=O)[C@H](Cc4ccccc4)NC(=O)[C@H](CCC(=O)O)NC(=O)[C@@H](N)CCC(=O)O)=CC[C@H]4[C@@H](C2)N(C)CC[C@]314 [EEFFF[SEQ ID NO: 3]-HC] (H-EEFFF-X1)
Recorded Result: 13
